// data source = ChEMBL document CHEMBL4706475

Experiment: Solubility of compound in phosphate buffer at pH 6.5
Assay type: physicochemical

>  <molecule>
N#Cc1cnc(Nc2cc(NC[C@H]3CNCCO3)c(C(F)(F)F)cn2)cn1 [SRA-737]

>  <solubility [µg/mL]>
1500

$$$$

----------
Assay: in vivo
Conditions: mouse, iv, 10 mg/kg
# key: entry, value: clearance
measured_quantity: clearance

>  <molecule>
N#Cc1cnc(Nc2cc(NC[C@H]3CNCCO3)c(-c3cccc(F)c3)cn2)cn1

>  <measured_quantity>
clearance

>  <measured>
113 mL/min/kg

$$$$
>  <molecule>
N#Cc1cnc(Nc2cc(NC[C@@H]3CNCCO3)c(C3CC3)cn2)cn1

>  <measured_quantity>
clearance

>  <measured>
112 mL/min/kg

$$$$
>  <molecule>
CC(C)(O)C#Cc1cnc(Nc2cnc(C#N)cn2)cc1NC[C@@H]1CNCCO1

>  <measured_quantity>
clearance

>  <measured>
138 mL/min/kg

$$$$
>  <molecule>
N#Cc1cnc(Nc2cc(NC[C@H]3CNCCO3)c(C(F)(F)F)cn2)cn1 [SRA-737]

>  <measured_quantity>
clearance

>  <measured>
44.2 mL/min/kg

$$$$
